# Tested on: histone deacetylase (HDAC)
# EXPERIMENTAL PROTOCOL: cellular acetylation assay (acetylation of histones monitored in PC3 cells, ELISA)
# Assay type: cell-based
# RUN PARAMETERS: PC3 human prostate carcinoma cells; compound 1 uM; 24 h incubation; antibodies against acetylated histone H3 or H4
What cell acetylation (PC3, 1 μM) [% of control] was measured for each of the following?

Consider the following illustrative entries.
| MOLECULE | REPORTED RESULT |
| --- | --- |
| CC(C)OCCCNC(=O)NCc1ccc(C(=O)Nc2ccccc2N)cc1 | 177 % of control |
| CCCC(=O)NCc1ccc(C(=O)Nc2ccccc2N)s1 | 238 % of control |
| CCC(C)CNC(=O)NCc1ccc(C(=O)Nc2ccccc2N)s1 (stereo not drawn) | 198 % of control |
| C=CCNC(=O)NCc1ccc(C(=O)Nc2ccccc2N)cc1 | 175 % of control |

// each listed molecule needs a value for cell acetylation (PC3, 1 μM) [% of control]
1. CCOCC(=O)NCc1ccc(C(=O)Nc2ccccc2N)s1
2. CCCCCNC(=O)NCc1ccc(C(=O)Nc2ccccc2N)cn1
3. Nc1ccccc1NC(=O)c1ccc(CNC(=O)C2CCCC2)s1
4. CC(=O)Nc1ccc(C(=O)Nc2ccccc2N)cc1 [CI 994, reference compound]
5. Nc1ccccc1NC(=O)c1ccc(CNC(=O)NCC2CC2)cc1

1. 194 % of control
2. 178 % of control
3. 170 % of control
4. 152 % of control
5. 187 % of control

* * *

# System: histone deacetylase (HDAC)
# EXPERIMENTAL PROTOCOL: cellular acetylation assay (acetylation of histones monitored in PC3 cells, ELISA)
# Type: cell-based
# RUN PARAMETERS: PC3 human prostate carcinoma cells; compound 1 uM; 24 h incubation; antibodies against acetylated histone H3 or H4
What cell acetylation (PC3, 1 μM) [% of control] was measured for each of the following?

// each listed compound needs a value for cell acetylation (PC3, 1 μM) [% of control]
1. C=CCNC(=O)NCc1ccc(C(=O)Nc2ccccc2N)s1
2. CCCCCC(C)NC(=O)NCc1ccc(C(=O)Nc2ccccc2N)cc1 (stereo not drawn)
3. CN(C)CC(C)(C)CNC(=O)NCc1ccc(C(=O)Nc2ccccc2N)cc1
4. CCOCCCNC(=O)NCc1ccc(C(=O)Nc2ccccc2N)cc1
5. CC(C)CNC(=O)NCc1ccc(C(=O)Nc2ccccc2N)s1
6. Nc1ccccc1NC(=O)c1ccc(CNC(=O)CC2C=CCC2)cc1 (stereo not drawn)

170 % of control
192 % of control
205 % of control
179 % of control
178 % of control
176 % of control
